Values were extracted from patent US20200031811A1.

# pIC50 values compiled below
target: MNK1 (Homo sapiens, UniProt Q9BUB5); assay: MNK inhibition assay (Z-Lyte kinase assay, Ser/Thr 7 peptide); details: recombinant GST-MNK1, 3 hours at 31° C.
Sequence (Q9BUB5 whole entry): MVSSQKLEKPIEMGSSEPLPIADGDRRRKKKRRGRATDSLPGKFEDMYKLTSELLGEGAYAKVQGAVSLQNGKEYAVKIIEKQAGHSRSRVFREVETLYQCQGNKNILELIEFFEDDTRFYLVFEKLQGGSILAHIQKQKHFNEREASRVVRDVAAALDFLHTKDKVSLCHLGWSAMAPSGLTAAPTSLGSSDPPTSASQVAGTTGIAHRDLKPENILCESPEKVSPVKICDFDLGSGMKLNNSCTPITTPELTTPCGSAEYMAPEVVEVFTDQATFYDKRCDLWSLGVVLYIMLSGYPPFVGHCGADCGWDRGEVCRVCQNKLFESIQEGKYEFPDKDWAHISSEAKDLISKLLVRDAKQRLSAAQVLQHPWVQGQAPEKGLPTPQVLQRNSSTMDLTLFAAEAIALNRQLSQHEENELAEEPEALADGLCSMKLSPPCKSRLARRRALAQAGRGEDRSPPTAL
Remember the convention: pIC50 equals -log10 of concentration in molar.

| Smiles Data | Quantitative Result |
| --- | --- |
| NCCCOCc1ccc2c(N)ncc(-c3ccc(Cl)cc3)c2c1 | 6.40 |
| Cn1nccc1OCc1ccc2cncc(-c3cc4ccccc4o3)c2c1 | 6.40 |
| CN(C)CCOc1ccc2cncc(-c3cc4ccccc4o3)c2c1 | 5.76 |

We next turn to a different molecule, shown below.
What does the data say about its pIC50? Entry: O=c1cc(NCc2ccc3cncc(-c4cc5ccccc5o4)c3c2)cc[nH]1
8.28

----------
target: MNK1 (Homo sapiens); assay: MNK inhibition assay (Z-Lyte kinase assay, Ser/Thr 7 peptide); conditions: recombinant GST-MNK1, 3 hours at 31° C.
Catalogue of IC50 values
Please give the number followed by its unit.

| Smiles Data | IC50 |
| --- | --- |
| c1cncc(Nc2ccc3cncc(-c4cc5ccccc5o4)c3c2)c1 | 4680 nM |
| c1ccc2oc(-c3cncc4ccc(Nc5ccncc5)cc34)cc2c1 | 903 nM |
| NC1CCN(Cc2ccc3cncc(-c4cc5ccncc5o4)c3c2)CC1 | 624 nM |
| CN(C)C1CCN(Cc2ccc3cncc(-c4cc5ccccc5o4)c3c2)CC1 | 618 nM |

Proceeding to the next molecule to report its IC50.
So what's the measured IC50 for this one? Cc1cnccc1NCc1ccc2cncc(-c3cc4ccccc4o3)c2c1
17 nM

----------
Listed here are compounds together with their documented IC50.
target: MNK1 (Homo sapiens, UniProt Q9BUB5); assay: MNK inhibition assay (Z-Lyte kinase assay, Ser/Thr 7 peptide); settings: recombinant GST-MNK1, 3 hours at 31° C.
Please give a number only; it is taken to be in nM.

| Compound | Measurement Unit | Quantitative Result |
| --- | --- | --- |
| Nc1ncc(-c2ccccc2)c2cc(CN3CCC(N)CC3)ccc12 [Example 92] | nM | 577 |
| Nc1cc(NCc2ccc3cncc(-c4cc5ccccc5o4)c3c2)ccn1 [Example 130] | nM | 21 |
| NC1CCN(Cc2ccc3cncc(-c4cn[nH]c4)c3c2)CC1 [Example 204] | nM | 4700 |
| Oc1cnccc1NCc1ccc2cncc(-c3cc4ccccc4o3)c2c1 [Example 73] | nM | 5 |
| COc1cc(CN2CCC(N)CC2)cc2c(-c3cccs3)cnc(N)c12 [Example 298] | nM | 282 |
| c1ccc2oc(-c3cncc4ccc(CNc5ccnnc5)cc34)cc2c1 [Example 131] | nM | 24 |
| Clc1cnccc1NCc1ccc2cncc(-c3cc4ccccc4o3)c2c1 [Example 71] | nM | 128 |
| NCCCOCc1ccc2c(N)ncc(-c3cc4ccccc4o3)c2c1 [Example 109] | nM | 687 |

From here, focus on the item given below.
Requested read-out: IC50. Entry: NC1CCC(NCc2ccc3cncc(-c4ccc(O)cc4)c3c2)CC1 (stereo not drawn) [Example 37]
336

----------
biological target: MNK1 (Homo sapiens); assay: MNK inhibition assay (Z-Lyte kinase assay, Ser/Thr 7 peptide); conditions: recombinant GST-MNK1, 3 hours at 31° C.
Property: IC50; scope: individual compounds
Field format: number, assumed nM, no unit text.

Consider the worked cases shown below.
| Smiles Data | Quantitative Result |
| --- | --- |
| CC(=O)Nc1ccc(-c2cncc3ccc(CN4CCC(N)CC4)cc23)cc1 | 459 |
| Nc1ncc(-c2ccccc2)c2cc(CN3CCC(N)CC3)cc(Cl)c12 | 159 |

Item: NCc1cccc(Nc2ccc3cncc(-c4cc5ccccc5o4)c3c2)c1 Test system: MNK1 (Homo sapiens) Read-out: IC50 Value: ?
558

Continue with NC1CCN(Cc2ccc3cncc(-c4cc5ccccc5o4)c3n2)CC1
89

----------
target: MNK1 (Homo sapiens); assay: MNK inhibition assay (Z-Lyte kinase assay, Ser/Thr 7 peptide); details: recombinant GST-MNK1, 3 hours at 31° C.
Where a name gives a salt, the structure may show the parent alone.
Measured log10 of IC50 accompanies every entry in the list below.
// stored as log10 of IC50 expressed in nM

Illustrative cases are given below, each with its answer.
| Molecule | log10 of IC50 |
| --- | --- |
| NC1CCN(Cc2ccc3cncc(-c4ccoc4)c3c2)CC1 [Example 179] | 2.44 |
| NC1CCN(Cc2ccc3cncc(-c4ccc5[nH]ccc5c4)c3c2)CC1 [Example 168] | 2.88 |
| NC1CCN(Cc2cc3c(-c4cc5ccccc5o4)cncc3cc2Cl)CC1 [Example 250] | 1.81 |
| Nc1ncc2ccc(CNc3ccncc3)cc2c1-c1cc2ccccc2o1 [Example 165] | 0.78 |
| Nc1cc[n+](Cc2ccc3cnc(N)c(-c4cc5ccccc5o4)c3c2)cc1 [Example 166, trifluoroacetate] | 1.76 |
| N#Cc1cc(CN2CCC(N)CC2)cc2c(-c3ccccc3)cncc12 [Example 307] | 2.41 |
| Nc1cccc(NCc2ccc3cncc(-c4cc5ccccc5o4)c3c2)c1 [Example 48] | 3.06 |

--- query ---
If you can, please state the reported log10 of IC50 value of NC1CCN(Cc2ccc3cncc(-c4ccc5ccccc5c4)c3c2)CC1 [Example 174] .
2.67

----------
Recorded measurements of pIC50, one per entry
Target: UniProt:Q9BUB5
Test: MNK inhibition assay (Z-Lyte kinase assay, Ser/Thr 7 peptide)
Details: recombinant GST-MNK1, 3 hours at 31° C.
Experimental: For the measurement of the activity of the MNK1 kinase the Z-Lyte kinase assay system was used. The kinase activity of MNK1 can be quantified with the Z-Lyte kinase assay kit Ser/Thr 7 peptide (Life Technologies PV3180). The kit was utilized according to the instructions of the provider. […] The % phosphorylation of the substrate peptide at each compound concentration was calculated as described in the assay manual. The fluorescent signals were recordes on Biotek Cytation 3 microplate reader. […]
Please keep in mind that pIC50 is minus log10 of the molar concentration; only the number is needed.

Examples with answers:
| Molecule | Outcome Measure | Quantitative Result |
| --- | --- | --- |
| COc1cc(CN2CCC(N)CC2)cc2c(-c3cc4ccccc4o3)cnc(N)c12 [Example 258] | pIC50 | 6.83 |
| N[C@H]1CC[C@H](Oc2ccc3cncc(-c4ccccc4)c3c2)CC1 [Example 309] | pIC50 | 7.21 |

Query: pIC50; subject: COc1c(CN2CCC(N)CC2)cc2c(-c3cc4ccccc4o3)cncc2c1OC [Example 279]
6.94

----------
molecular target: MNK1 (Homo sapiens, UniProt Q9BUB5); construct: purchased Life Technologies or Carna Biosciences PV6023 or 02-145; host or cells: baculovirus infected insect cells; test: MNK inhibition assay (Z-Lyte kinase assay, Ser/Thr 7 peptide); assay type: biochemical; details: recombinant GST-MNK1, 3 hours at 31° C.
Outcome Measure: log10 IC50 (log10 of the value in nM)
Quick note: numbers are log10 of IC50, with nM as the unit.

| Compound | Target | Quantitative Result |
| --- | --- | --- |
| Cc1c[n+](Cc2ccc3cncc(-c4cc5ccccc5o4)c3c2)ccc1N [Example 57] | MNK1 (Homo sapiens, UniProt Q9BUB5) | 0.90 |
| COc1ccc(-c2cncc3ccc(CN4CCC(N)CC4)cc23)cn1 [Example 201] | MNK1 (Homo sapiens, UniProt Q9BUB5) | 2.90 |
| N[C@@H]1CCN(Cc2ccc3cncc(-c4cc5ccccc5o4)c3c2)C[C@H]1F [Example 205] | MNK1 (Homo sapiens, UniProt Q9BUB5) | 3.33 |
| CC(C)Oc1cc(CN2CCC(N)CC2)cc2c(-c3cc4ccccc4o3)cncc12 [Example 283] | MNK1 (Homo sapiens, UniProt Q9BUB5) | 2.88 |
| NC1CCN(Cc2ccc3cncc(-c4cc5ccccc5o4)c3c2)c2ccccc21 (stereo not drawn) [Example 207] | MNK1 (Homo sapiens, UniProt Q9BUB5) | 2.78 |
| NC1CCCN(Cc2ccc3cncc(-c4cc5ccccc5o4)c3c2)C1 (stereo not drawn) [Example 293] | MNK1 (Homo sapiens, UniProt Q9BUB5) | 3.32 |

What measured log10 IC50 is associated with Nc1cc[n+](Cc2ccc3cncc(-c4cc5ccccc5o4)c3c2)cc1C(F)(F)F [Example 58] on MNK1 (Homo sapiens, UniProt Q9BUB5)?
1.70

Now consider c1ccc2oc(-c3cncc4ccc(CN5CCNCC5)nc34)cc2c1 [Example 302] .
2.15

Let us now turn to N[C@H]1CC[C@H](Oc2ccc3cncc(-c4cc5ccccc5o4)c3c2)CC1 [Example 79]
2.60

Subsequent entry: NCc1ccc(NCc2ccc3cncc(-c4cc5ccccc5o4)c3c2)cc1 [Example 52]
2.21

Now the same for COc1cc2cncc(-c3cc4ccccc4o3)c2cc1CN1CCC(N)CC1 [Example 282]
2.18

Now give it for c1ccc2oc(-c3cncc4ccc(CNc5ccncc5)cc34)cc2c1 [Example 61] too.
0.48

Repeat with NCCCOCc1ccc2cncc(-c3ccc(O)cc3)c2c1 [Example 44]
1.79

Further, for Nc1cnccc1NCc1ccc2cncc(-c3cc4ccccc4o3)c2c1 [Example 76] ?
0.77

// repeat for c1ccc2oc(-c3cncc4ccc(OC5CCNCC5)cc34)cc2c1 [Example 78] and report
2.32

Then what about the compound COc1cc(CN2CCC(N)CC2)cc2c(-c3ccccc3)cnc(N)c12 [Example 259] ?
1.82

// next record N[C@@H]1CCN(Cc2ccc3cncc(-c4cc5ccccc5o4)c3c2)C[C@@H]1O [Example 269]
2.15

Now this one: NC1CCN(Cc2cc(F)c3cncc(-c4cc5ccccc5o4)c3c2)CC1 [Example 247]
2.36

Same thing, different compound: Nc1ncc2ccc(CN3CCNCC3)cc2c1-c1cc2ccccc2o1 [Example 260]
3.20
